# TEST SYSTEM: Grb2 SH2 (UniProt P62993)
# Sequence (P62993 whole entry, looked up, the tested form may be a part): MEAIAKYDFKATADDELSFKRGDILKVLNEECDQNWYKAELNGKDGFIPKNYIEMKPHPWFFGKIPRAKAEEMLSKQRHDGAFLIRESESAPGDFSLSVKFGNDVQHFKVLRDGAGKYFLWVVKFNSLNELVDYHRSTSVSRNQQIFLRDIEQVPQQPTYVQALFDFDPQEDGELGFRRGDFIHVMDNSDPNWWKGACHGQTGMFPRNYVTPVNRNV
# PROTOCOL SUMMARY: SH2 binding enrichment of the phosphorylated peptide, bacterial display (enrichment ratio); higher = better substrate or ligand; peptides without Tyr show the background;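 further: peptide library displayed on the E. coli surface as eCPX fusions, selected cells deep-sequenced, score is each peptide's frequency after selection divided by its frequency in the input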
Some sequences, each annotated with its measured SH2 binding enrichment.
Respond numerically, and do not add a unit to the figure.

Below, each entry is followed by its recorded SH2 binding enrichment result.
- CHAIN SEQUENCE: "ALTDNYMYLVI [HAGH_Y61]"
  VALUE TYPE: "SH2 binding enrichment"
  NUMERIC VALUE: 0.819
- CHAIN SEQUENCE: "IEPGIYIPEDD [XPNPEP3_Y455]"
  VALUE TYPE: "SH2 binding enrichment"
  NUMERIC VALUE: 0.802

// query Consider the sequence SYSGEYGSGGG [ZG16_Y30_G32S] and give its measured SH2 binding enrichment.
// result 0.782

// query So what's the measured SH2 binding enrichment for this one? EKSREYDRLFE [PIK3R1_Y463_YF]
// result 0.809

// query Look up SH2 binding enrichment for this sequence: ILQSMYGCDVG [HLA-B_Y123_T118I]
// result 0.818

// query Recorded SH2 binding enrichment of LPSKDYAEVGR [HP_Y272] , please.
// result 0.766

// query Any idea what SH2 binding enrichment was measured for GSRGKYSSGFC [ATM_Y332_R337C] ?
// result 1.25

// query # query: SH2 binding enrichment of entry KAVLHYKHQNQ [MTOR_Y1804_E1799K]
// result 1.12

// query # query: SH2 binding enrichment of entry NAGAFYALSTL [FLVCR2_Y325]
// result 0.979

// query Value lookup for SH2 binding enrichment; key = FKEVVYQAMEE [TACC3_Y684_E680K]
// result 0.774
